B1: Ribonuclease HI, P0A7Y4 (parent)
chain: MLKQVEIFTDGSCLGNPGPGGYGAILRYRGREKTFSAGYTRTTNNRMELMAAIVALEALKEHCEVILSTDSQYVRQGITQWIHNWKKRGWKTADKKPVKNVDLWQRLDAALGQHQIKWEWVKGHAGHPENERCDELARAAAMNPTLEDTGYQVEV

- Variants of: B1
- stated conditions: Escherichia coli (strain K12); pH 3; Thermal; CD; glycine-HCl 10 mM; NaCl 0.1 M; reversible: yes; structure 2RN2; whole UniProt chain shown
endpoint: unfolding enthalpy (van 't Hoff)

Item: "K117R" | unfolding enthalpy (van 't Hoff): 97.1 kcal/mol

Briefly, unfolding enthalpy (van 't Hoff) measured for "E135K" : 99 kcal/mol

Lab note: H62P T40A K122R gave unfolding enthalpy (van 't Hoff) of 109 kcal/mol

The variant identified as E119V R41C registered its unfolding enthalpy (van 't Hoff) at 101 kcal/mol

Each recorded value in this set is attributed to FireProtDB.
